# experimental_protocol: protein stability index of a GFP-peptide fusion (yeast GPS) (PSI 1-4); higher = more stable; sorted into four equal gates, so the index is relative within each strain
# particulars: pdr5∆
// values below are reported protein stability index
Could you respond with only the numeric value?

AFIFGLQDELKELQLEK [SMC3]: 3.47
AINLMGVKNNLLTPKSG [RPO31]: 2.76
ALSGNEGDASPFTDITV [RPB2]: 3.12
IGVETGSEPLIQQVVEY [PRP28]: 3.08
ETQFKLSRPYKALKTNI [CDC53]: 2.39

Asked: Endpoint output: protein stability index of YDALLSINVHSNNITSG [RET1] . Value?
Given back: 2.66

Asked: // next record FEGVTHRWGTKKLPRKT [RPL3]
Given back: 2.98

Asked: // next record PQGSTTNGGLFGSGTQN [YGR119C/NUP57]
Given back: 3.27

Asked: // next record FNGAQLKAVTVEAGMIA [RPT5]
Given back: 2.62

Asked: // next record GNPYIELNQDRLGGDDL [SNF5]
Given back: 3.24

Asked: // next record NQLVEPNRIKLSKEVPF [SRB5]
Given back: 2.44

Asked: // next record IITQYVFESLEINNLIQ [ARP9]
Given back: 2.93

Asked: // next record LVISLAATNETFENINS [IRR1]
Given back: 2.4

====

# experimental_protocol: protein stability index of a GFP-peptide fusion (yeast GPS) (PSI 1-4); higher = more stable; sorted into four equal gates, so the index is relative within each strain
# particulars: san1∆
Decide using protein stability index: a value greater than or equal to 3 is 1, a smaller one is -1.

Recorded results for 4 sequences are shown here.
TKGDTSKATGAPSANQG [RTT102]: 1
DIPLAKALDNACGAFIN [CDC53]: -1
LVTPKSFLFDVLKTLEY [NUT1]: 1
VEINSSESDLDEDKNFP [ESC2]: 1

Asked: Tell me whether protein stability index is at least 3 here: VKFLVYQGVYSMGSILL [YML031W/NDC1]
Given back: -1

Asked: // next record YRNFMVNSYRLNPNEYF [SWI3]
Given back: -1

====

# experimental_protocol: protein stability index of a GFP-peptide fusion (yeast GPS) (PSI 1-4); higher = more stable; sorted into four equal gates, so the index is relative within each strain
# particulars: doa10∆
readout_label: protein stability index
Could you respond with only the numeric value?

KQENSSRFTNVSVIAPE [YMR153W/NUP53]: 2.71
FKHISVKDFTSLGFNEV [RPO21]: 3.08
NDEKRVKEEYDIWQSRD [YIL149C/MLP2]: 3.22
SAYEASMVYSNVGELIE [RRP4]: 1.64
RYSRQFINNVLSNPSNQ [GRR1]: 2.28
EPHAVSLAWSADGQTLF [ASC1]: 2.85

Asked: Endpoint output: protein stability index of KNNNGDEKNKNNNEDNE [MED2] . Value?
Given back: 3.23

Asked: // next record SLEDKILRMGAFRTIES [RRI1]
Given back: 2.24

Asked: // next record VTRTHGNSGVVRATFRN [RPL33A]
Given back: 2.6

Asked: // next record ELDQFWQEYSSVFKGGM [SRP14]
Given back: 2.68

Asked: // next record LLSIKLPGKVNTKEEFA [SNF5]
Given back: 2.15

Asked: // next record EVYEALKEVLYNDSATS [RPN2]
Given back: 3.34

Asked: // next record EKIKMKLKQGQKLFVQV [GAL11]
Given back: 2.85

Asked: // next record FAEENITHKLTKNDAGS [BRR2]
Given back: 3.26

Asked: // next record PHQSPDATRVFVNGVWH [RPB2]
Given back: 2.84

Asked: // next record NEDARAIFNNEFDSDDD [RPN4]
Given back: 3.09

Asked: // next record FDEFMNVVIDEAVEIPV [SME1]
Given back: 2.86

Asked: // next record IMKNKDFILSLLHHVSE [YJL039C/NUP192]
Given back: 2.41

====

# experimental_protocol: protein stability index of a GFP-peptide fusion (yeast GPS) (PSI 1-4); higher = more stable; sorted into four equal gates, so the index is relative within each strain
# particulars: doa10∆
// values below are reported protein stability index

Example cases with answers are listed next.
DNMSEEQWLRQFEVSDD [SNF2]: 3.46
WDDHTKKPLSMALNKVL [CDC53]: 1.99

Asked: Endpoint output: protein stability index of VQEMALGGPITKESQPT [FAS2] . Value?
Given back: 2.78

Asked: // next record QTQREKAPLQPNSERET [IRR1]
Given back: 3.1

Asked: // next record IKVWTIKGQCLATLLGH [ASC1]
Given back: 2.22

Asked: // next record GISDDENDEEDIYMHDV [RRP4]
Given back: 3.33

Asked: // next record SFSDENSDDFFMDNSYD [ESC2]
Given back: 1.97

Asked: // next record ERPPYILNSYGVLKPDI [SIR2]
Given back: 2.83

====

# experimental_protocol: protein stability index of a GFP-peptide fusion (yeast GPS) (PSI 1-4); higher = more stable; sorted into four equal gates, so the index is relative within each strain
# particulars: ubr1∆
Decide using protein stability index: a value greater than or equal to 3 is yes, a smaller one is no.

NANEISANTNNTCTIST [SWP82]: no

Could you now consider this next sequence?
Asked: Tell me whether protein stability index is at least 3 here: TSEEQTKFLAKNGVIPE [SWP82]
Given back: yes

====

# experimental_protocol: protein stability index of a GFP-peptide fusion (yeast GPS) (PSI 1-4); higher = more stable; sorted into four equal gates, so the index is relative within each strain
# particulars: pdr5∆
Decide using protein stability index: a value greater than or equal to 3 is YES, a smaller one is NO.

LQIGDVVERHLEDGDVV [RPO31]: YES
NFKDMSHVNKYGLIRGL [PRP8]: NO
SKNELKKAFTSYDRTLL [RPS16A]: YES
VPIERVAQLKPFFKYID [RPC37]: NO
SDKPSLPSAVDGENDKK [YLR335W/NUP2]: YES

Asked: Tell me whether protein stability index is at least 3 here: LIAVYYSFGGLLMRLEG [RPB8]
Given back: NO

Asked: // next record LREEIFIANEGVHTGQF [RPL2A]
Given back: NO

====

# experimental_protocol: protein stability index of a GFP-peptide fusion (yeast GPS) (PSI 1-4); higher = more stable; sorted into four equal gates, so the index is relative within each strain
# particulars: doa10∆
readout_label: protein stability index

Asked: Endpoint output: protein stability index of ALSAYHKVQTKLTRELE [RPS7B] . Value?
Given back: 2.4

Asked: // next record VKIHSQESLLSRTFDKY [SRP72]
Given back: 2.92

Asked: // next record IRINDEPILGQITLTFI [YML103C/NUP188]
Given back: 2.21

Asked: // next record NDIHLRFMRFLADRDEF [ECM29]
Given back: 2.44

Asked: // next record ASDESLLRYGGAFTIAL [RPN2]
Given back: 3.39

Asked: // next record VITALKEPPRDRKKDKN [RPL12A]
Given back: 2.48

Asked: // next record MDIAERIAVLHQKTKTL [YGL172W/NUP49]
Given back: 2.14

====

# experimental_protocol: protein stability index of a GFP-peptide fusion (yeast GPS) (PSI 1-4); higher = more stable; sorted into four equal gates, so the index is relative within each strain
# particulars: pdr5∆
readout_label: protein stability index
Could you respond with only the numeric value?

Example cases with answers are listed next.
SSTDIPSYTHVLISKLS [RRI1]: 2.42
SLTQSVCDLALRFGEGA [PUP2]: 3.34
CSDFVKILNLEKPLILA [NUT1]: 1.39
RKNFKMGPLYQNFAEFM [IRR1]: 1.54
KLLKVCLTMFEDRNESV [ECM29]: 1.99
EVAQLGSLACDTADEAK [RPB4]: 3.28

Asked: Endpoint output: protein stability index of DPSQNRLTGSLLAHKVA [RPC37] . Value?
Given back: 2.15

Asked: // next record LPKIKTVRKSIACVLTV [RPL35A]
Given back: 2.79

====

# experimental_protocol: protein stability index of a GFP-peptide fusion (yeast GPS) (PSI 1-4); higher = more stable; sorted into four equal gates, so the index is relative within each strain
# particulars: ubr1∆
// values below are reported protein stability index
Could you respond with only the numeric value?

NTHAVLVALKRNADELS [PRE5]: 2.41
YPDFRHYGLAVDIYTHF [DIS3]: 2.2
ESGIKPYFEQKIQETEL [RPT6]: 3.23
GVTIEFSTNVKDEIVLS [RPL9A]: 3.18
SMLFKTSQKMTSTVNRL [MCD1]: 3.04

Asked: Endpoint output: protein stability index of HQGTPLGSHSSSQKDGN [REC8] . Value?
Given back: 3.35

Asked: // next record WNVEKFKKDFEVNISSL [RPC40]
Given back: 2.59

Asked: // next record EDRNESVNIAFAISMGY [ECM29]
Given back: 2.82

Asked: // next record RNEDARRNLRYGDRMKL [RPO31]
Given back: 3.38

Asked: // next record YNLLVKISLHKREYLEV [RPN5]
Given back: 1.43

Asked: // next record LTFILGQLLSVKFLVYQ [YML031W/NDC1]
Given back: 1.69

Asked: // next record EYSDNFPVSLSQPSKKS [SIR4]
Given back: 3.1

Asked: // next record FPPNLEKGENPSCVYNL [UBP6]
Given back: 1.11

Asked: // next record GNPYIELNQDRLGGDDL [SNF5]
Given back: 3.27

Asked: // next record PPQLANQQQPPQDILSK [SNF11]
Given back: 2.69

The reported measurements were obtained from the supplement of paper PMC9732359.
